# System: corn (Zea mays)
# experiment-description: Test A postemergence, corn
# Format: in vivo
# particulars: 500 g ai/ha, visual injury, 0 to 100 scale (0 no effect, 100 complete control), approximately 10 days
measure-name: Plant response rating, Corn

INSERT INTO results (compound, reported_result) VALUES
  ('O=C1NCC(c2cccc(OCc3ccco3)c2)C1C(=O)Nc1cccc(F)c1F (stereo not shown) [Compound 9]', 20),
  ('CC1(COc2cccc(C3CNC(=O)C3C(=O)Nc3ccccc3Cl)c2)COC1 (stereo not shown) [Compound 16]', 0),
  ('O=C1NCC(c2cccc(OCC3OCCO3)c2)C1C(=O)Nc1cccc(F)c1F (stereo not shown) [Compound 7]', 20),
  ('O=C1NCC(c2cccc(Cn3cccn3)c2)C1C(=O)Nc1cccc(F)c1F (stereo not shown) [Compound 30]', 0),
  ('O=C1NCC(c2cccc(Cn3ccc(C(F)(F)F)n3)c2)C1C(=O)Nc1ccc(F)c(F)c1F (stereo not shown) [Compound 22]', 0),
  ('CN1CC(c2cccc(Oc3ccc(F)cn3)c2)C(C(=O)Nc2ccccc2F)C1=O (single isomer, unassigned) [Compound 60]', 50),
  ('O=C1NCC(c2cccc(Cn3cccn3)c2)C1C(=O)Nc1ccccc1F (stereo not shown) [Compound 27]', 0),
  ('O=C1NCC(c2cccc(Cn3ccc(C(F)(F)F)n3)c2)C1C(=O)Nc1ccccc1F (stereo not shown) [Compound 23]', 0),
  ('CN1CC(c2cccc(Oc3ccc(F)cc3)c2)C(C(=O)Nc2cccc(F)c2F)C1=O (single isomer, unassigned) [Compound 46]', 50),
  ('O=C1NCC(c2cccc(COc3ccccc3)c2)C1C(=O)Nc1cccc(F)c1F (stereo not shown) [Compound 21]', 0),
  ('O=C1NCC(c2cccc(Oc3ccccn3)c2)C1C(=O)Nc1ccccc1F (stereo not shown) [Compound 34]', 0),
  ('O=C1NCC(c2cccc(Cn3cncn3)c2)C1C(=O)Nc1cccc(F)c1F (stereo not shown) [Compound 32]', 0),
  ('CON=Cc1cccc(C2CN(C)C(=O)C2C(=O)Nc2ccccc2F)c1 (stereo not shown) [Compound 53]', 0),
  ('O=C1NCC(c2cccc(OCc3ccco3)c2)C1C(=O)Nc1ccccc1Cl (stereo not shown) [Compound 1]', 0),
  ('O=C1NCC(c2cccc(OCC3OCCO3)c2)C1C(=O)Nc1ccccc1Cl (stereo not shown) [Compound 6]', 20),
  ('CN1CC(c2cccc(Oc3ccc(F)cn3)c2)C(C(=O)Nc2cccc(F)c2F)C1=O (single isomer, unassigned) [Compound 61]', 90),
  ('O=C1NCC(c2cccc(Oc3ccccn3)c2)C1C(=O)Nc1ccccc1Cl (stereo not shown) [Compound 69]', 0),
  ('O=C1NCC(c2cccc(OCC3CC3)c2)C1C(=O)Nc1ccc(F)cc1F (stereo not shown) [Compound 3]', 20),
  ('CN(C)N=Cc1cccc(C2CN(C)C(=O)C2C(=O)Nc2ccccc2F)c1 (stereo not shown) [Compound 54]', 0);
